Values were extracted from patent US20250296953A1.

Measured CC50, listed per entry.
- System: 60 different human tumor cell lines
- method.summary: cells
- condition.summary: BT-549, read-out: LC50

The cases that follow already have their CC50 on record.
1) C[C@]12CC[C@H]3[C@@H](CC=C4c5sc(Nc6ccccc6)nc5CC[C@@]43C)[C@@H]1CC[C@@H]2O [IIIa.10] | 32.6 µM
2) C[C@]12CC[C@H]3[C@@H](CC=C4c5sc(-c6ccc(O)cc6)nc5CC[C@@]43C)[C@@H]1CC[C@@H]2O [III.5] | > 100 µM
3) C[C@]12CCc3sc(NCCc4ccccc4)nc3C1=CC[C@@H]1[C@@H]2CC[C@]2(C)C(=O)CC[C@@H]12 [IIa.2] | > 100 µM

Query :: Supply recorded CC50 for C[C@]12CCc3sc(Nc4ccc(F)cc4F)nc3C1=CC[C@@H]1[C@@H]2CC[C@]2(C)C(=O)CC[C@@H]12 [IIa.10] here.
Result :: > 100 µM

Query :: Supply recorded CC50 for C[C@]12CCc3sc(Nc4cccc(O)c4)nc3C1=CC[C@@H]1[C@@H]2CC[C@]2(C)C(=O)CC[C@@H]12 [IIa.17] here.
Result :: > 100 µM
